All figures here come from patent US20120214846A1.

molecular target: GR (Homo sapiens, UniProt P04150); assay: GR Ligand Binding Assay (GR BIND), HeLa cell lysate, 3H-DEX; set-up: endogenous in cells; host or cells: HeLa (ATCC) cell lysate supernatant; conditions: HeLa cell lysate, 3H-DEX; read-out: GR BIND Ki
Could you please report measured Ki for the items listed next?
Numeric only. Scale: nM

Q: Notebook entry, GR (Homo sapiens, UniProt P04150) assay: Ki of C[C@]12Cc3cnn(-c4ccc(F)cc4)c3C=C1CC[C@@]2(O)CC(O)c1cc(C(F)(F)F)ccn1 (single isomer, unassigned) [Example 5b] = ?
Ans: 4.3

Q: Notebook entry, GR (Homo sapiens, UniProt P04150) assay: Ki of C[C@]12Cc3cnn(-c4ccc(F)cc4)c3C=C1CC[C@@]2(O)CC(O)c1cc(Cl)ccn1 (single isomer, unassigned) [Example 8b] = ?
Ans: 2.1

Q: Notebook entry, GR (Homo sapiens, UniProt P04150) assay: Ki of C[C@]12Cc3cnn(-c4ccc(F)cc4)c3C=C1CC[C@@]2(O)CC(O)c1cc(Br)ccn1 (single isomer, unassigned) [Example 10a] = ?
Ans: 3.4

Q: Notebook entry, GR (Homo sapiens, UniProt P04150) assay: Ki of Cc1cccnc1C(O)C[C@]1(O)CCC2=Cc3c(cnn3-c3ccc(F)cc3)C[C@@]21C (single isomer, unassigned) [Example 1b] = ?
Ans: 3.9

###

Target: GR (Homo sapiens, UniProt P04150)
Sequence (P04150 1-777): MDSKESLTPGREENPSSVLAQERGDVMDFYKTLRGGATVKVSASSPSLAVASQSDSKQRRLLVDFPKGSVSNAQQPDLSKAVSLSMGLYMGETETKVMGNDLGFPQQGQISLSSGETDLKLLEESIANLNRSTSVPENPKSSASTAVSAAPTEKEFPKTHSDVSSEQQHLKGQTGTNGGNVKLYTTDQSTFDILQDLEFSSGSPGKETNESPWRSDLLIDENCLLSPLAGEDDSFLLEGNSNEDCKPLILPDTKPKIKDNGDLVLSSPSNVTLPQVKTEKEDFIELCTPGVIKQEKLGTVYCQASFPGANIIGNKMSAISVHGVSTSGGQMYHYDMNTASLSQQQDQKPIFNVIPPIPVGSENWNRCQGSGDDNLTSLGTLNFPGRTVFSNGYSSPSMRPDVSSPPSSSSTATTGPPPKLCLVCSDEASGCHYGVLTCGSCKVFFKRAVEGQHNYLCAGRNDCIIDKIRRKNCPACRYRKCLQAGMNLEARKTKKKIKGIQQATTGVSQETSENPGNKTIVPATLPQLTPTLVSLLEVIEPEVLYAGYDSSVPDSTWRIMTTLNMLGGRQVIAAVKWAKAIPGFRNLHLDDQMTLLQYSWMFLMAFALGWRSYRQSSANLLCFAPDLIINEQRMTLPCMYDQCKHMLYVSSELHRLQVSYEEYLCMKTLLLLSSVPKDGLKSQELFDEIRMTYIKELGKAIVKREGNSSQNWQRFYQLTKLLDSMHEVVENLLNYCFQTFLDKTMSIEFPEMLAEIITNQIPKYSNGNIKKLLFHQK
Assay: Trans-Activation Modulation of Glucocorticoid Receptor Assay (GRAMMER), MMTV-LUC reporter, A549 cells
Type: cell-based
Parameters: endogenous in cells
Conditions: A549, A549 cells; relative to 300 nM dexamethasone; read-out: Transactivation A549 Cells GRAMMER Emax
Method: Trans-Activation Modulation of Glucocorticoid Receptor Assay […] The routine transient assay consists of plating 7,000-25,000 cells/well of a white, clear-bottom 96-well plate. […] The cells are trypsinized and counted to the right cell number in the proper amount of fresh media. […] Antagonist activity is calculated by determining the decrease in dexamethasone-induced activity in response to compound treatment relative to samples that were treated with dexamethasone alone. […]
Could you please report measured Emax for the items listed next?
Numeric only. Scale: %

Q: Consider the compound C[C@]12Cc3cnn(-c4ccc(F)cc4)c3C=C1CC[C@@]2(O)CC(O)c1cc(C#N)ccn1 (stereo partly drawn) [Example 9] and give its measured Emax.
Ans: 27.4

Q: Consider the compound C[C@]12Cc3cnn(-c4ccc(F)cc4)c3C=C1CC[C@@]2(O)CC(O)c1cc(Cl)ccn1 (single isomer, unassigned) [Example 8a] and give its measured Emax.
Ans: 21.4

Q: Consider the compound C[C@]12Cc3cnn(-c4ccc(F)cc4)c3C=C1CC[C@@]2(O)CC(O)c1cc(C(F)(F)F)ccn1 (single isomer, unassigned) [Example 5a] and give its measured Emax.
Ans: 15.1

Q: Consider the compound C[C@]12Cc3cnn(-c4ccc(F)cc4)c3C=C1CC[C@@]2(O)CC(O)c1ccc(C(F)(F)F)cn1 (stereo partly drawn) [Example 6] and give its measured Emax.
Ans: 18.6

Q: Consider the compound C[C@]12Cc3cnn(-c4ccc(F)cc4)c3C=C1CC[C@@]2(O)CC(O)c1ccccn1 (single isomer, unassigned) [Example 2a] and give its measured Emax.
Ans: 23.1

Q: Consider the compound C[C@]12Cc3cnn(-c4ccc(F)cc4)c3C=C1CC[C@@]2(O)CC(O)c1ccc(F)cn1 (single isomer, unassigned) [Example 7a] and give its measured Emax.
Ans: 18.6
